Items are presented alongside their recorded protein stability index.
B1: TRAF3IP2 (parent)
chain: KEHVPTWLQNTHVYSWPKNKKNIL

# Variants of: B1
# Procedure Summary: protein stability index of a GFP-peptide fusion (GPS, HEK-293T) (PSI 1-6); higher = more stable;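 further: lentivirally expressed fusions sorted by FACS into six bins by GFP to DsRed ratio, PSI derived from sequencing read proportions per bin multiplied by bin number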
# Experimental Parameters: c terminus: a fixed tail appended
Outcome Measure: protein stability index

INSERT INTO assay_data (construct_sequence, observed_result) VALUES
  ('KEHVPTWLYNTHVYSWPKNKKNIL', 2.39),
  ('KEHVPTWQQNTHVYSWPKNKKNIL', 3.08),
  ('KEHVPTWLQNTHVYSWPKNKKNQL', 2.75),
  ('KEHVPTWLQNTHVYAWPKNKKNIL', 3.19),
  ('KEHVPTWLQNTHVQSWPKNKKNIL', 3.06),
  ('KEHVGTWLQNTHVYSWPKNKKNIL', 2.38),
  ('KEHVPTWLQNTHVYSWPKNKKIIL', 1.5),
  ('KELVPTWLQNTHVYSWPKNKKNIL', 2.6),
  ('KEHVPTWLQNFHVYSWPKNKKNIL', 2.53),
  ('KEHVPTWLQNTHVYSWPKNIKNIL', 3.38),
  ('KEHQPTWLQNTHVYSWPKNKKNIL', 3.54),
  ('KEHKPTWLQNTHVYSWPKNKKNIL', 2.43),
  ('KEHVPTWLQNTHVYSWPDNKKNIL', 2.17),
  ('KEHVPTWLQNTHVYSWFKNKKNIL', 2.18),
  ('KEHVPIWLQNTHVYSWPKNKKNIL', 2.21),
  ('KEHVPTWLQNTHVYSWPKGKKNIL', 2.56),
  ('KEHVPTWLQNTHVYSWPKNKKNIW', 1.86),
  ('KEHVPTWLQNTHVYSWPKNKKFIL', 1.67),
  ('KEHVPTWLQNTHVYSWPKNKKNHL', 3.19),
  ('KEHVPYWLQNTHVYSWPKNKKNIL', 2.32),
  ('KEHVPTWLQNTHVYSWPVNKKNIL', 2.14),
  ('KEHVPTWLQNTHQYSWPKNKKNIL', 2.31),
  ('KEHVPTWLQNTHVYWWPKNKKNIL', 1.68),
  ('KEHVPTWLGNTHVYSWPKNKKNIL', 2.66),
  ('KEHVPTWLQNTHVYSWPKNKGNIL', 2.31),
  ('KEHVPTWLQNQHVYSWPKNKKNIL', 3.04),
  ('KEHVPTWLQNTHVYSWPKNKPNIL', 2.79),
  ('KEHVPTWLQNTHVDSWPKNKKNIL', 3),
  ('LEHVPTWLQNTHVYSWPKNKKNIL', 2.56),
  ('KEHVPTWLQNTHWYSWPKNKKNIL', 2.46),
  ('KEHVPTRLQNTHVYSWPKNKKNIL', 2.85),
  ('KEHVPTWLQLTHVYSWPKNKKNIL', 2.03),
  ('KEHVPTWLQNTHVYSWPKNKWNIL', 1.97),
  ('KEHVPTWLQNTHVYSWPKNRKNIL', 2.29),
  ('KEHVPTWLQNTHFYSWPKNKKNIL', 2.65),
  ('KEHVPTWLVNTHVYSWPKNKKNIL', 2.65),
  ('KEHVKTWLQNTHVYSWPKNKKNIL', 1.9),
  ('KEHYPTWLQNTHVYSWPKNKKNIL', 2.27),
  ('KEHVPTWLMNTHVYSWPKNKKNIL', 2.53),
  ('KEHVPTWLQNTHVYTWPKNKKNIL', 2.54),
  ('KEHVPTWLQNTHVYSWPKNKANIL', 2.08),
  ('KEHVPTWLQNTHVYSKPKNKKNIL', 2.81),
  ('KEHVPTWLQNTHVYSAPKNKKNIL', 3.35),
  ('KEHVPTWLQNTIVYSWPKNKKNIL', 2.17),
  ('DEHVPTWLQNTHVYSWPKNKKNIL', 2.93),
  ('KEHVPTWLQNTHVYSSPKNKKNIL', 3.08),
  ('KEHVPTWLQNTHVYSWPKEKKNIL', 2.72),
  ('CEHVPTWLQNTHVYSWPKNKKNIL', 2.26),
  ('KEDVPTWLQNTHVYSWPKNKKNIL', 2.85),
  ('KETVPTWLQNTHVYSWPKNKKNIL', 2.72),
  ('IEHVPTWLQNTHVYSWPKNKKNIL', 1.94),
  ('KKHVPTWLQNTHVYSWPKNKKNIL', 2.13),
  ('KEHVPTWEQNTHVYSWPKNKKNIL', 3.88),
  ('KEHVPTWCQNTHVYSWPKNKKNIL', 3.02),
  ('KEHVPTWYQNTHVYSWPKNKKNIL', 2.73),
  ('KEHVPTWLQNTHVYSWPKNPKNIL', 2.72),
  ('KEHVYTWLQNTHVYSWPKNKKNIL', 1.94),
  ('KEHVPTWLQNIHVYSWPKNKKNIL', 2.55),
  ('KEHVPTWLQNTHVYSPPKNKKNIL', 3.82),
  ('KEHVPTWLQNTHVASWPKNKKNIL', 3.14),
  ('KEIVPTWLQNTHVYSWPKNKKNIL', 2.53),
  ('KEHVPTWLQNTHVYSWPKDKKNIL', 3.03),
  ('KEHVPTWLQNTHVYSWPKNKKNAL', 2.89),
  ('KEHVPTWLQNRHVYSWPKNKKNIL', 2.54),
  ('KEHVPVWLQNTHVYSWPKNKKNIL', 2.17),
  ('KEHVPTWLQNTHVYSWSKNKKNIL', 2.81),
  ('KEHVPTWLQNTHVYSWPKNKKNLL', 2.68),
  ('KEHVPTWLQNTHVYSWPKNDKNIL', 2.31),
  ('KEHVPTWLQNTHVYSWPKNWKNIL', 2.07),
  ('KEHVPTWLSNTHVYSWPKNKKNIL', 2.62),
  ('KEHVPTWLQTTHVYSWPKNKKNIL', 2.85),
  ('KEHVPTWLQNTHVYSWPKNKKNIS', 2.51),
  ('KEHVPTWLQNTHVYSWPKNMKNIL', 1.58),
  ('KEHVPEWLQNTHVYSWPKNKKNIL', 2.59),
  ('KEHVPTWLQNTWVYSWPKNKKNIL', 1.82),
  ('KEHVPTWLQNTHVYPWPKNKKNIL', 2.7),
  ('KEHDPTWLQNTHVYSWPKNKKNIL', 3.29),
  ('KEHVPTWLQNTHVYHWPKNKKNIL', 2.27),
  ('KEHVPTWFQNTHVYSWPKNKKNIL', 2.2),
  ('KEHVQTWLQNTHVYSWPKNKKNIL', 1.45),
  ('KEHVPTWLQNTHRYSWPKNKKNIL', 3),
  ('KEHVPTWLQNTHVYSWTKNKKNIL', 2.29),
  ('KEHVPTWAQNTHVYSWPKNKKNIL', 3.33),
  ('KEHVPTWKQNTHVYSWPKNKKNIL', 2.98),
  ('KEHVPTWLQWTHVYSWPKNKKNIL', 1.64),
  ('KEHVPTWLQNTHVYSWPQNKKNIL', 3.64);

Every entry's value here was drawn from the supplement of paper PMC10567573.
